These entries and their values trace back to paper PMC9959130.

- runDescription: Biodistribution in BALB/c nude mice bearing A431-CCK2R/A431-mock xenografts
- Assay type: in vivo
- setupConditions: female, athymic BALB/c nude, mouse, A431-mock xenograft, iv, 20 pmol, total radioactivity, xenografted BALB/c nude mice, i.v., 20 pmol, gallium-68, 1 h p.i., mean ± SD n = 4; read-out: Uptake in A431-mock xenograft
recordedEndpoint: tissue uptake at 1 h
Kindly write the number and append the unit.

For record CCCC[C@@H](C(=O)N[C@@H](CC(=O)O)C(=O)N(C)[C@@H](Cc1cccc2ccccc12)C(N)=O)N(C)C(=O)[C@H](Cc1c[nH]c2ccccc12)NC(=O)CNC(=O)[C@H](Cc1ccc(O)cc1)NC(=O)[C@H](C)NC(=O)[C@@H](CCC(=O)O)NC(=O)CN1CCN(CC(=O)O)CCN(CC(=O)O)CCN(CC(=O)O)CC1 [[^68Ga]Ga-DOTA-[(N-Me)1Nal^8]MGS5, metal not drawn] the listed tissue uptake at 1 h is 1.51 %ID/g
